Catalogue of Average Spleen Weight values
- System: Friend Leukemia Virus
- experimental.details: Inhibition of Friend Leukemia Virus-induced splenomegaly in mice, compounds intraperitoneally 24 hours after virus (Example 1(a))
- Format: in vivo, BALB/c mice
- Parameters: unit not given here
- settings: dose 2 × 100 (micrograms) i.p.; Table III
Hey, just send me the number, nothing else.

• c1ccc2cc3cc4cc5ccccc5cc4cc3cc2c1 = 1.4102
• O=C1c2ccccc2Cc2ccccc21 = 0.9878

Moving on to the next compound.
Query (compound): c1ccc2c(c1)c1ccccc1c1ccccc21 ; field requested: Average Spleen Weight
1.4063

----------
- Tested on: Friend Leukemia Virus
- experimental.details: Inhibition of Friend Leukemia Virus-induced splenomegaly in mice, compounds intraperitoneally 24 hours after virus (Example 1(a))
- Type: in vivo, BALB/c mice
- settings: Mus musculus, ip, dose 50 (micrograms) i.p.; Table III; read-out: Average Perdosage % Inhibition
measure.name: inhibition in vivo at 0.05 mg
Remember to put the unit after the number in your answer.

- c1ccc2c(c1)ccc1ccccc12 [Compound 17, Phenanthrene]: 31%

Query (compound): O=C1C(c2ccccc2)=C(c2ccccc2)C(c2ccccc2)=C1c1ccccc1 [Compound 24, Tetraphenylcyclo pentadienone] ; field requested: inhibition in vivo at 0.05 mg
20%

Query (compound): O=C1c2ccccc2C(=O)C1c1ccccc1 [Compound 33, 2-phenyl-1,2 inadione] ; field requested: inhibition in vivo at 0.05 mg
60%

Query (compound): c1ccc2cc3cc4cc5ccccc5cc4cc3cc2c1 [Compound 28, Pentacene] ; field requested: inhibition in vivo at 0.05 mg
22%

Query (compound): O=C1c2ccccc2Cc2ccccc21 [Compound 30, Anthrone] ; field requested: inhibition in vivo at 0.05 mg
31%

Query (compound): c1cc2c3c(ccc4c3c1CCC4)CCC2 [Compound 23, 1,2,3,6,7,8-Hexahydropyrene] ; field requested: inhibition in vivo at 0.05 mg
26%

Query (compound): Cc1cc(O)c2c(c1)C(=O)c1cc(O)cc(O)c1C2=O [Compound 34, Emodin] ; field requested: inhibition in vivo at 0.05 mg
41%

Query (compound): c1ccc(C2=C(c3ccccc3)C(c3ccccc3)=C(c3ccccc3)C2)cc1 [Compound 26, 1,2,3,4-Tetraphenyl-1,3-cyclopentadiene] ; field requested: inhibition in vivo at 0.05 mg
27%

Query (compound): c1ccc2c(c1)CCc1ccccc1-2 [Compound 20] ; field requested: inhibition in vivo at 0.05 mg
22%

Query (compound): O=C1c2ccccc2C(=C2c3ccccc3C(=O)c3ccccc32)c2ccccc21 [Compound 36, Bianthrone] ; field requested: inhibition in vivo at 0.05 mg
52%

Query (compound): O=C1c2ccc(O)cc2C(=O)c2ccc(O)cc21 [Compound 32, Anthraflavic acid] ; field requested: inhibition in vivo at 0.05 mg
26%

Query (compound): C1=CCC2=C(C1)CC1=C(CC=CC1)C2 [Compound 21, 1,4,5,8,9,10-Hexahydroanthracene] ; field requested: inhibition in vivo at 0.05 mg
13%
